These measurements were taken from PubChem BioAssay AID1918998.

Test system: 521955-158-R2-J5-PDC complex spheroid growth;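 also: spheroids mix tumor cells with HUVEC endothelium and human MSC stroma; luminescence taken as viability surrogate after a week of drug exposure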
method notes: Anticancer human tumor 521955-158-R2-J5-PDC patient-derived pancreatic carcinoma cell line growth inhibition [AhR]
particulars: second compound 3.16 µM; first compound 0.0316 µM; hits give low values
Item-by-item account of viability, T/C
Write the value in % as a bare number.

Known viability, T/C results, listed for orientation:
{"compound": "COc1cccc2c1C(=O)c1c(O)c3c(c(O)c1C2=O)CC(O)(C(=O)CO)CC3OC1CC(N)C(O)C(C)O1 (stereo not given) + Cc1ccccc1N=Nc1ccc(NC(=O)c2ccnn2C)c(C)c1", "value type": "viability, T/C", "unit info": "%", "recorded value": 55.6}
{"compound": "O=C(c1cc(Cc2n[nH]c(=O)c3ccccc23)ccc1F)N1CCN(C(=O)C2CC2)CC1 + Cc1ccccc1N=Nc1ccc(NC(=O)c2ccnn2C)c(C)c1", "value type": "viability, T/C", "unit info": "%", "recorded value": 124}
{"compound": "COc1ccc([C@@H](O)c2cc(-c3ncnc4cc(N5CCOCC5)ccc34)c(F)cc2Cl)nn1 + Cc1cncc(-c2nc(NCCc3c[nH]c4ccccc34)c3ncn(C(C)C)c3n2)c1", "value type": "viability, T/C", "unit info": "%", "recorded value": 134}
{"compound": "CC1COCCN1c1cc(-c2ccnn2C)c2ccnc(-c3ccn[nH]3)c2n1 (stereo not given) + Cc1cncc(-c2nc(NCCc3c[nH]c4ccccc34)c3ncn(C(C)C)c3n2)c1", "value type": "viability, T/C", "unit info": "%", "recorded value": 145}
{"compound": "Cn1ncnc1C1c2n[nH]c(=O)c3cc(F)cc(c23)NC1c1ccc(F)cc1 (stereo not given) + Cc1ccccc1N=Nc1ccc(NC(=O)c2ccnn2C)c(C)c1", "value type": "viability, T/C", "unit info": "%", "recorded value": 128}
{"compound": "Nc1ccn(C2OC(CO)C(O)C2(F)F)c(=O)n1 (stereo not given) + CC(CO)NC(=O)c1cc(-c2ccc(Cl)cc2)nn(-c2cnn(C)c2)c1=O", "value type": "viability, T/C", "unit info": "%", "recorded value": 78.1}
{"compound": "COc1cccc2c1C(=O)c1c(O)c3c(c(O)c1C2=O)CC(O)(C(=O)CO)CC3OC1CC(N)C(O)C(C)O1 (stereo not given) + CC(CO)NC(=O)c1cc(-c2ccc(Cl)cc2)nn(-c2cnn(C)c2)c1=O", "value type": "viability, T/C", "unit info": "%", "recorded value": 50.7}
{"compound": "COc1ccc([C@@H](O)c2cc(-c3ncnc4cc(N5CCOCC5)ccc34)c(F)cc2Cl)nn1 + Cc1ccccc1N=Nc1ccc(NC(=O)c2ccnn2C)c(C)c1", "value type": "viability, T/C", "unit info": "%", "recorded value": 139}
{"compound": "COc1cc(C2c3cc4c(cc3C(OC3OC5COC(C)OC5C(O)C3O)C3COC(=O)C23)OCO4)cc(OC)c1O (stereo not given) + Cc1ccccc1N=Nc1ccc(NC(=O)c2ccnn2C)c(C)c1", "value type": "viability, T/C", "unit info": "%", "recorded value": 139}
{"compound": "COc1cc(C2c3cc4c(cc3C(OC3OC5COC(C)OC5C(O)C3O)C3COC(=O)C23)OCO4)cc(OC)c1O (stereo not given) + CC(CO)NC(=O)c1cc(-c2ccc(Cl)cc2)nn(-c2cnn(C)c2)c1=O", "value type": "viability, T/C", "unit info": "%", "recorded value": 93.5}

# viability, T/C (compound: COc1cc(Nc2ncc3c(n2)-c2ccc(Cl)cc2C(c2c(F)cccc2OC)=NC3)ccc1C(=O)O + Cc1ccccc1N=Nc1ccc(NC(=O)c2ccnn2C)c(C)c1 ) is 98.6

Summary for this compound, CC1COCCN1c1cc(C2(S(C)(=N)=O)CC2)nc(-c2ccnc3[nH]ccc23)n1 (stereo not given) + CC(CO)NC(=O)c1cc(-c2ccc(Cl)cc2)nn(-c2cnn(C)c2)c1=O : viability, T/C is 114

Form: compound = COc1cc(C2c3cc4c(cc3C(OC3OC5COC(C)OC5C(O)C3O)C3COC(=O)C23)OCO4)cc(OC)c1O (stereo not given) + Cc1cncc(-c2nc(NCCc3c[nH]c4ccccc34)c3ncn(C(C)C)c3n2)c1 ; viability, T/C = 112

# viability, T/C (compound: Nc1ccccc1NC(=O)c1ccc(CNC(=O)OCc2cccnc2)cc1 + Cc1ccccc1N=Nc1ccc(NC(=O)c2ccnn2C)c(C)c1 ) is 141

Value of viability, T/C reported for the compound Nc1ccn(C2OC(CO)C(O)C2(F)F)c(=O)n1 (stereo not given) + Cc1ccccc1N=Nc1ccc(NC(=O)c2ccnn2C)c(C)c1 is 91.2
